observedProperty: glass transition temperature (°C)

*Oc1ccc(S(=O)(=O)c2ccc(-c3ccc(S(=O)(=O)c4ccc(*)cc4)cc3)cc2)cc1 (repeat unit); 282.00

A. *CCCCCOC(=O)c1ccc(C(=O)O*)cc1 (repeat unit)
B. *CC(O)COc1ccc(C(C)(C)c2ccc(OCC(O)COc3cccc(NC(=O)C(=O)Nc4cccc(O*)c4)c3)cc2)cc1 (repeat unit)
stdin: Could you please tell me which of these two has the higher glass transition temperature: A or B ? Pick one; state its label.
stdout: B

---

observedProperty: glass transition temperature (°C)

*CC(*)(C)C(=O)OCCOc1ccc(/N=N/c2ccc([N+](=O)[O-])cc2)cc1 (repeat unit); 112.00
*CCCCCC(*)CCCC (repeat unit); -69.00
*CC(*)(C)C(=O)OCCCCCCn1c2ccccc2c2ccccc21 (repeat unit); 73.00

P. *Oc1c(C)cc(C(c2cc(C)c(OC(*)=O)c(C)c2)(C(F)(F)F)C(F)(F)F)cc1C (repeat unit)
Q. *CCCCOC(=O)C1CCC(C(=O)O*)CC1 (repeat unit)
stdin: Looking at recorded values for glass transition temperature, does P or Q come in lower? State the label of the item chosen.
stdout: Q
(Q: -10.50 °C, P: 208.00 °C)

a. *C1CCC(CC2CCC(N3C(=O)c4ccc(Oc5ccc6c(c5)C(=O)N(*)C6=O)cc4C3=O)CC2)CC1 (repeat unit)
b. *CCOC(=O)NCCCCCCNC(=O)OCCOc1ccc(C2(c3ccc(O*)cc3)c3ccccc3-c3ccccc32)cc1 (repeat unit)
c. *Nc1ccc(NC(=O)CCCCCCCCC(*)=O)cc1 (repeat unit)
stdin: Put the molecules in ascending order of glass transition temperature. Respond with an ordered listing of the labels, as requested.
stdout: b, c, a
(b: 61.00 °C, c: 125.00 °C, a: 240.00 °C)

I. *Oc1cccc(Oc2cccc(NC(=O)c3cc(Oc4ccc(C(=O)O)c(C(=O)Nc5cccc(*)c5)c4)ccc3C(=O)O)c2)c1C#N (repeat unit)
II. *c1cccc(-n2nc(-c3ccccc3)c3cc(Oc4ccc5c(-c6ccccc6)nn(*)c(=O)c5c4)ccc3c2=O)c1C#N (repeat unit)
III. *CCCCCCOC(=O)Nc1ccc(Cc2ccc(NC(=O)O*)cc2)cc1 (repeat unit)
IV. *OC(=O)OCCCCOC(=O)OC1COC2C(*)COC12 (repeat unit)
stdin: Hi! Can you put these in order of glass transition temperature, lowest number first? Give the labels in the order requested.
stdout: IV, III, I, II
(IV: 49.00 °C, III: 71.00 °C, I: 200.10 °C, II: 301.00 °C)

1. *Oc1ccc(C2(c3ccc(OC(=O)c4cccc(C(*)=O)c4)c(C)c3)CCC3CCCCC3C2)cc1C (repeat unit)
2. *Oc1ccccc1C(=O)OC(=O)c1ccccc1OC(=O)C(C)C(C)C(*)=O (repeat unit)
stdin: Hi! Which is lower in terms of glass transition temperature, the first one 1 or the second one 2 ? Indicate your choice by writing its label.
stdout: 2
(2: 45.00 °C, 1: 207.00 °C)
